# experiment: Bioavailability in rat (dose 1 mg/kg i.v. and 2 mg/kg p.o.)
# Assay type: ADME, organism-based
# particulars: in vivo, po
quantity: bioavailability (%)

>>> experimental_value("COCCN/C(=N\\[C@@H](Cc1ccc(-c2c(OC)cccc2OC)cc1)C(=O)O)[C@@H]1CCN1S(=O)(=O)c1ccccc1")
0
>>> experimental_value("COc1cccc(OC)c1-c1ccc(C[C@@H]2/N=C(/[C@@H]3CCN3S(=O)(=O)c3ccccc3)NCc3nccn3C2=O)cc1")
0.6
>>> experimental_value("COc1cccc(OC)c1-c1ccc(C[C@H](NC(=O)[C@@H]2CCN2S(=O)(=O)c2ccccc2)C(=O)O)cc1")
1.4
>>> experimental_value("COc1cccc(OC)c1-c1ccc(C[C@H](/N=C(\\N)[C@@H]2CCN2S(=O)(=O)c2cc(Cl)cc(Cl)c2)C(=O)O)cc1")
0.3

---

Some molecules, each annotated with its measured clearance.
# experiment: Plasma clearance of compound in rats was evaluated
# Format: ADME, organism-based
# particulars: rat, read-out: Clp
quantity: clearance

>>> experimental_value("CN/C(=N\\[C@@H](Cc1ccc(-c2c(OC)cccc2OC)cc1)C(=O)O)[C@@H]1CCN1S(=O)(=O)c1cc(Cl)cc(Cl)c1")
"85 mL/min/kg"
>>> experimental_value("COc1cccc(OC)c1-c1ccc(C[C@H](/N=C(\\NCC(F)(F)F)[C@@H]2CCN2S(=O)(=O)c2ccccc2)C(=O)O)cc1")
"45 mL/min/kg"
>>> experimental_value("COc1cccc(OC)c1-c1ccc(C[C@@H]2/N=C(/[C@@H]3CCN3S(=O)(=O)c3ccccc3)NCc3nccn3C2=O)cc1")
"382 mL/min/kg"
>>> experimental_value("COc1cccc(OC)c1-c1ccc(C[C@H](NC(=O)[C@@H]2CCN2S(=O)(=O)c2cc(Cl)cc(Cl)c2)C(=O)O)cc1")
"102 mL/min/kg"
>>> experimental_value("COc1cccc(OC)c1-c1ccc(C[C@@H]2N=C([C@@H]3CCN3S(=O)(=O)c3ccccc3)NNC2=O)cc1")
"86 mL/min/kg"
>>> experimental_value("COc1cccc(OC)c1-c1ccc(C[C@H](/N=C(\\NC#N)[C@@H]2CCN2S(=O)(=O)c2ccccc2)C(=O)O)cc1")
"93 mL/min/kg"

---

# test_system: Integrin alpha-4/beta-7 (Homo sapiens, UniProt P13612+P26010)
# Sequence (P13612 whole entry): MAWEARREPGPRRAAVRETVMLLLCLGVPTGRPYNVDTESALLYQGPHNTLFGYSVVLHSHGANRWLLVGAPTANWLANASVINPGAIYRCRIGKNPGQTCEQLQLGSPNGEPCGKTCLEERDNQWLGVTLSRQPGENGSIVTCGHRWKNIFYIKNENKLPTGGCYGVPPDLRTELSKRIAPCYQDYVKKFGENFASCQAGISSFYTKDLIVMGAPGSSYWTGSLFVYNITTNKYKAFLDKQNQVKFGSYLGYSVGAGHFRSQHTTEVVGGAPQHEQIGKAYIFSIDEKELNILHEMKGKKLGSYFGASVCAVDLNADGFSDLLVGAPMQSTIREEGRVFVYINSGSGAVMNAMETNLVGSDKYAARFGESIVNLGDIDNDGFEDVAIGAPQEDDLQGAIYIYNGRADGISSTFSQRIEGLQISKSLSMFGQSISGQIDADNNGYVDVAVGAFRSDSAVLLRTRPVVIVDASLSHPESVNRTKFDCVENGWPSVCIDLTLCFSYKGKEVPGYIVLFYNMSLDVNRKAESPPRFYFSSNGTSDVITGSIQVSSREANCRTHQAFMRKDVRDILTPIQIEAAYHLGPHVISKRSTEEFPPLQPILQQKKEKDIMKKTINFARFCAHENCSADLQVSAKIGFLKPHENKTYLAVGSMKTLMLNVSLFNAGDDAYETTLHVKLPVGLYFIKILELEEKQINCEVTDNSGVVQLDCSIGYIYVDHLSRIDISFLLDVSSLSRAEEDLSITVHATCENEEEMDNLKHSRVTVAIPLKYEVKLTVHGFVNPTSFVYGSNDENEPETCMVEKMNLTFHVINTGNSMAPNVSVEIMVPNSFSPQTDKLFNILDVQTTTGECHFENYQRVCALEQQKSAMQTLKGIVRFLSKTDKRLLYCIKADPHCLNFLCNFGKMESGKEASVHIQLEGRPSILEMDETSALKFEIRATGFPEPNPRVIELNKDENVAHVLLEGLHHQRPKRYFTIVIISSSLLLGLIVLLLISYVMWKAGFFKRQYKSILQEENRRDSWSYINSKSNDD
# Sequence (P26010 whole entry): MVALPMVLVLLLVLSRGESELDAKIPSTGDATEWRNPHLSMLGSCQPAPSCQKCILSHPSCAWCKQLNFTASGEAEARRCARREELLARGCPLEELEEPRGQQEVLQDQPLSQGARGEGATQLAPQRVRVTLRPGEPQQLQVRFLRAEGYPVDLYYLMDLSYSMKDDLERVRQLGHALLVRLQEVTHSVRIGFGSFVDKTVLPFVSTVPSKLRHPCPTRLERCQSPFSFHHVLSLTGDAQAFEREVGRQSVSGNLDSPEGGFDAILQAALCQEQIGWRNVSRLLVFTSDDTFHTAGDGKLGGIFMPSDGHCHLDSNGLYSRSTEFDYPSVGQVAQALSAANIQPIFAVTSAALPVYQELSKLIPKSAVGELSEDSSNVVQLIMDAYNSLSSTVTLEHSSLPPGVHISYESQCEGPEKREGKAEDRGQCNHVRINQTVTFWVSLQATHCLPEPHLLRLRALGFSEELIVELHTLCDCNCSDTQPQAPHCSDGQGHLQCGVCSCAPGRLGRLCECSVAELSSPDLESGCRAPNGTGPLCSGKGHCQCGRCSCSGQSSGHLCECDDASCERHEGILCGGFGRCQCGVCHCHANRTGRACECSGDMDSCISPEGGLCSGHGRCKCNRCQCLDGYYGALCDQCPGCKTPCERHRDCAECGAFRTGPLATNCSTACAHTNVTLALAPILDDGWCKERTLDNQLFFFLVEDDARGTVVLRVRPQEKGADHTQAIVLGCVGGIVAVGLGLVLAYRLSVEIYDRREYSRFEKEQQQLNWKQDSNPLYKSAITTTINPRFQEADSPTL
# experiment: Inhibitory activity of compound against alpha4-beta7 integrin using MAdCAM-Ig ligand
pIC50: −log10 of the molar value.
We begin with a simple list: items and their reported pIC50.
quantity: pIC50

>>> experimental_value("COc1cccc(OC)c1-c1ccc(C[C@H](/N=C(\\N)[C@@H]2CCN2S(=O)(=O)c2ccccc2)C(=O)O)cc1")
7.72
>>> experimental_value("COc1cccc(OC)c1-c1ccc(C[C@H](/N=C(\\NCC2CCOOCC2)[C@@H]2CCN2S(=O)(=O)c2ccccc2)C(=O)O)cc1")
7.37
>>> experimental_value("COc1cccc(OC)c1-c1ccc(C[C@H](/N=C(\\NC#N)[C@@H]2CCN2S(=O)(=O)c2ccccc2)C(=O)O)cc1")
8.39
>>> experimental_value("CN/C(=N\\[C@@H](Cc1ccc(-c2c(OC)cccc2OC)cc1)C(=O)O)[C@@H]1CCN1S(=O)(=O)c1ccccc1")
7.40
>>> experimental_value("COc1cccc(OC)c1-c1ccc(C[C@H](/N=C(\\N)[C@@H]2CCN2S(=O)(=O)c2cc(Cl)cc(Cl)c2)C(=O)O)cc1")
7.80
>>> experimental_value("COc1cccc(OC)c1-c1ccc(C[C@H](/N=C(\\NCC(=O)O)[C@@H]2CCN2S(=O)(=O)c2ccccc2)C(=O)O)cc1")
7.11
>>> experimental_value("CON/C(=N\\[C@@H](Cc1ccc(-c2c(OC)cccc2OC)cc1)C(=O)O)[C@@H]1CCN1S(=O)(=O)c1ccccc1")
7.46
>>> experimental_value("COc1cccc(OC)c1-c1ccc(C[C@H](NC(=O)[C@@H]2CCN2S(=O)(=O)c2ccccc2)C(=O)O)cc1")
7.11
